Quick list: pIC50 per entry.
System: Jurkat
Test: In vitro test for antitumor activity against human Jurkat cell line using a formazan dye (MTT) conversion assay.
Assay type: functional, cell-based
Interpret pIC50 as the negative base-10 log of the concentration measured in mol/L.

See these solved cases before continuing.
smiles string | pIC50
COc1cc2c(cc1OC)C(=O)/C(=C/c1cc(C)ccc1C)C2 | 4.52
COc1ccc(OC)c(/C=C2\CCc3cc(OC)c(OC)cc3C2=O)c1 | 4.96

The record that follows has no pIC50 shown yet.
I am curious: what pIC50 value has been reported for COc1cc2c(cc1OC)C(=O)/C(=C/c1cc(Cl)cc(Cl)c1)C2 ?
5.70

----------
Tested on: Jurkat
Assay: In vitro test for antitumor activity against human Jurkat cell line using a formazan dye (MTT) conversion assay.
Type: functional, cell-based
Quick list: IC50 per entry.
Give the value, in units of µM, as a plain number.

See these solved cases before continuing.
smiles string | reported value
COc1cc2c(cc1OC)C(=O)/C(=C/c1cccc(C)c1)C2 | 1.8
CCOC(=O)COc1c(C)cc(/C=C2\Cc3cc(OC)c(OC)cc3C2=O)cc1C | 2.2
COc1cc2c(c(N)c1OC)C(=O)/C(=C/c1cc(C)c(N)c(C)c1)C2 | 0.0235
COc1cc2c(cc1OC)C(=O)/C(=C/c1cc([N+](=O)[O-])ccc1O)C2 | 14.5

Notebook entry, Jurkat assay: IC50 of COc1cc2c(cc1OC)C(=O)/C(=C/c1ccc(O)cc1)CC2 = ?
19

Notebook entry, Jurkat assay: IC50 of COc1cc2c(cc1OC)C(=O)/C(=C/c1cccc(C)c1)CC2 = ?
17

Notebook entry, Jurkat assay: IC50 of COc1cc2c(cc1OC)C(=O)/C(=C/c1cc(F)cc(F)c1)C2 = ?
19

Notebook entry, Jurkat assay: IC50 of COc1cc2c(c(OC)c1OC)C(=O)/C(=C/c1cc(C)c(O)c(C)c1)C2 = ?
0.125

Notebook entry, Jurkat assay: IC50 of COc1cc2c(cc1OC)C(=O)/C(=C/c1cc(C)cc(C)c1)CC2 = ?
4

Notebook entry, Jurkat assay: IC50 of COc1cccc(/C=C2\CCc3cc(OC)c(OC)cc3C2=O)c1 = ?
5

----------
System: WIL2
Test: Cytotoxicity was evaluated against WIL2 tumor cell lines; Inactive
Type: functional, cell-based
Conditions: Homo sapiens
Active and inactive are the calls of the source. The rule behind the calls is not given here.
reported metric: Cytotoxicity

smiles string | reported value
COc1cc2c(c([N+](=O)[O-])c1OC)C(=O)/C(=C/c1cc(C)c([N+](=O)[O-])c(C)c1)C2 | inactive
COc1ccc(/C=C2\CCc3cc(OC)c(OC)cc3C2=O)cc1 | inactive
Cc1cc(/C=C2\Cc3cc4c(cc3C2=O)OCO4)cc(C)c1O | inactive

----------
Tested on: K562
Assay: Cytotoxicity was evaluated against K562 tumor cell lines; Inactive
Type: functional, cell-based
Conditions: Homo sapiens
Activity calls are given as the source filed them. The rule behind the calls is not given here.
reported metric: Cytotoxicity

smiles string | target or system | reported metric | reported value
Cc1cc(/C=C2\Cc3cc4c(cc3C2=O)OCO4)cc(C)c1O | K562 | Cytotoxicity | inactive
COc1ccc(/C=C2\CCc3cc(OC)c(OC)cc3C2=O)c(OC)c1 | K562 | Cytotoxicity | inactive
COc1ccc(/C=C2\CCc3cc(OC)c(OC)cc3C2=O)cc1OC | K562 | Cytotoxicity | inactive
